We begin with a simple list: items and their reported Activity.
- Tested on: Eimeria maxima
- EXPERIMENT SUMMARY: Anticoccidial activity against Eimeria maxima in chickens assessed as reduction of oocysts at 25 ppm measured after 8 days by ExMAC assay relative to untreated control
- Type: functional
- Design: scale not given: the % may be the effect or the level left

Worked cases, Activity given:
compound=Nc1nccc(-c2c(-c3ccc(F)cc3)nc3cc(C4CCN(CC5CC5)CC4)ccn23)n1 test_target="Eimeria maxima" measured_quantity=Activity value_observed=80%
compound=CC(C)CN1CCC(c2ccn3c(-c4ccnc(N)n4)c(-c4ccc(F)cc4)nc3c2)CC1 test_target="Eimeria maxima" measured_quantity=Activity value_observed=80%
compound=CN1CCC(c2ccn3c(-c4ccnc(N)n4)c(-c4ccc(F)cc4)nc3c2)CC1 test_target="Eimeria maxima" measured_quantity=Activity value_observed=100%
compound="CCCC(c1ccn2c(-c3ccnc(N)n3)c(-c3ccc(F)cc3)nc2c1)N(C)C (stereo not given)" test_target="Eimeria maxima" measured_quantity=Activity value_observed=100%
compound=CN(C)Cc1ccn2c(-c3ccnc(N)n3)c(-c3ccc(F)cc3)nc2c1 test_target="Eimeria maxima" measured_quantity=Activity value_observed=80%

Next, consider the following compound.
**Q:** Sample `CNC(=O)c1ccn2c(-c3ccnc(N)n3)c(-c3ccc(F)cc3)nc2c1` — what was its Activity?
**A:** 50%
